system: Streptococcus pneumoniae; assay: Antimicrobial activity against Streptococcus pneumoniae 02J1175 expressing mef(A) gene by NCCLS method; assay type: functional
metric-name: MIC

Provide the documented MIC with Streptococcus pneumoniae as the system for CC(=O)NC[C@H]1CN(c2ccc(N3CCC(CNC(=O)/C=C/c4c(C)[nH]c(=O)[nH]c4=O)CC3)c(F)c2)C(=O)O1
4 µg/mL

Provide the documented MIC with Streptococcus pneumoniae as the system for CC(=O)NC[C@H]1CN(c2ccc(-c3ccc(CNC(=O)CCc4cccnc4)cc3)c(F)c2)C(=O)O1
0.5 µg/mL

Provide the documented MIC with Streptococcus pneumoniae as the system for CC(=O)NC[C@H]1CN(c2ccc(/C=C/CCCNC(=O)/C=C/c3c(C)[nH]c(=O)[nH]c3=O)c(F)c2)C(=O)O1
1 µg/mL

Provide the documented MIC with Streptococcus pneumoniae as the system for CC(=O)NC[C@H]1CN(c2ccc(/C=C/CCCNC(=O)CCc3cccnc3)c(F)c2)C(=O)O1
2 µg/mL

Provide the documented MIC with Streptococcus pneumoniae as the system for CSC[S@@+]([O-])CC(CO)NC(=O)/C=C/c1c(C)[nH]c(=O)[nH]c1=O (stereo partly specified)
2 µg/mL

Provide the documented MIC with Streptococcus pneumoniae as the system for CC(=O)NC[C@H]1CN(c2ccc(-c3ccc(CNC(=O)/C=C/c4c(C)[nH]c(=O)[nH]c4=O)cc3)c(F)c2)C(=O)O1
≤ 0.25 µg/mL

----------
test system: Escherichia coli; test: Inhibition of protein synthesis in Escherichia coli S30 extract by translation assay; format: functional
metric-name: IC50 (µM)
Use µM as the unit, but write only the number.

What value of IC50 has been recorded for this entry: CC(=O)NC[C@H]1CN(c2ccc(N3CCC(CNC(=O)/C=C/c4c(C)[nH]c(=O)[nH]c4=O)CC3)c(F)c2)C(=O)O1
0.26

----------
Record form. Attribute: IC50. Fill in for each entry.
tested on: Escherichia coli; assay: Inhibition of protein synthesis in Escherichia coli by translation assay

What value of IC50 has been recorded for this entry: CC(=O)NC[C@H]1CN(c2ccc(/C=C/CCCNC(=O)/C=C/c3c(C)[nH]c(=O)[nH]c3=O)c(F)c2)C(=O)O1
30 nM

What value of IC50 has been recorded for this entry: CC(=O)NC[C@H]1CN(c2ccc(/C=C/CCCNC(=O)CCc3cccnc3)c(F)c2)C(=O)O1
16000 nM

What value of IC50 has been recorded for this entry: CC(=O)NC[C@H]1CN(c2ccc(-c3ccc(CNC(=O)/C=C/c4c(C)[nH]c(=O)[nH]c4=O)cc3)c(F)c2)C(=O)O1
30 nM

What value of IC50 has been recorded for this entry: CSC[S@@+]([O-])CC(CO)NC(=O)/C=C/c1c(C)[nH]c(=O)[nH]c1=O (stereo not given in full) [SPARSOMYCIN]
≤ 20 nM

What value of IC50 has been recorded for this entry: CC(=O)NC[C@H]1CN(c2ccc(-c3ccc(CNC(=O)CCc4cccnc4)cc3)c(F)c2)C(=O)O1
580 nM

----------
Record form. Attribute: MIC. Fill in for each entry.
test system: Enterococcus faecalis; experiment: Antimicrobial activity against linezolid-resistant Enterococcus faecalis P5 by NCCLS method; assay type: functional
Use µg/mL as the unit, but write only the number.

Provide the documented MIC with Enterococcus faecalis as the system for CC(=O)NC[C@H]1CN(c2ccc(-c3ccc(CNC(=O)CCc4cccnc4)cc3)c(F)c2)C(=O)O1
16

Provide the documented MIC with Enterococcus faecalis as the system for CC(=O)NC[C@H]1CN(c2ccc(/C=C/CCCNC(=O)CCc3cccnc3)c(F)c2)C(=O)O1
32

Provide the documented MIC with Enterococcus faecalis as the system for CC(=O)NC[C@H]1CN(c2ccc(N3CCOCC3)c(F)c2)C(=O)O1
32

Provide the documented MIC with Enterococcus faecalis as the system for CC(=O)NC[C@H]1CN(c2ccc(/C=C/CCCNC(=O)/C=C/c3c(C)[nH]c(=O)[nH]c3=O)c(F)c2)C(=O)O1
32

Provide the documented MIC with Enterococcus faecalis as the system for CC(=O)NC[C@H]1CN(c2ccc(-c3ccc(CNC(=O)/C=C/c4c(C)[nH]c(=O)[nH]c4=O)cc3)c(F)c2)C(=O)O1
16
